The reported measurements were obtained from ChEMBL document CHEMBL3120139.

# System: Mus musculus
# test-description: Induction of catalepsy in albino mouse at 15 mg/kg, ip relative to control
# Format: organism-based
# Parameters: dose 15 mg/kg, route intraperitoneal
# experimental-context: in vivo
Exercise: state measured Activity for each of the compounds provided.
Give bare numbers, in %.

Go through the items and report each one's Activity.
1. O=C(CN1CCN(c2ccc(Cl)c(Cl)c2)CC1)c1ccc(-c2ccccc2)cc1
2. Cc1cccc(N2CCN(CC(=O)c3ccc(-c4ccccc4)cc3)CC2)c1
3. Cc1ccccc1N1CCN(CC(=O)c2ccc(-c3ccccc3)cc2)CC1
4. O=C(CN1CCN(c2ccc(Cl)cc2)CC1)c1ccc(-c2ccccc2)cc1
5. COc1ccccc1N1CCN(CC(=O)c2ccc(-c3ccccc3)cc2)CC1

1: 30.5; 2: 33.82; 3: 35.84; 4: 35.17; 5: 29.43

---

# Test system: Mus musculus
# test-description: Induction of catalepsy in albino mouse at 15 mg/kg, ip relative to control
# Assay type: organism-based
# Parameters: dose 15 mg/kg, route intraperitoneal
# experimental-context: in vivo
outcome-measure: Activity (%)
Answers are plain numbers, in %.

{"compound": "O=C(CN1CCN(c2ccccc2)CC1)c1ccc(-c2ccccc2)cc1", "unit-abbreviation": "%", "val": 34.53}

Go through the items and report each one's Activity.
1. O=C(CN1CCN(c2cccc(Cl)c2)CC1)c1ccc(-c2ccccc2)cc1
2. Cc1cccc(N2CCN(CC(=O)c3ccc(-c4ccccc4)cc3)CC2)c1C
3. O=C1CCc2ccc(OCCCCN3CCN(c4cccc(Cl)c4Cl)CC3)cc2N1 [ARIPIPRAZOLE]
4. O=C(CN1CCN(c2ccccc2Cl)CC1)c1ccc(-c2ccccc2)cc1
5. O=C(CN1CCN(c2cccc(Cl)c2Cl)CC1)c1ccc(-c2ccccc2)cc1
6. Cc1ccc(N2CCN(CC(=O)c3ccc(-c4ccccc4)cc3)CC2)cc1
7. O=C(CN1CCN(c2ccc(F)cc2)CC1)c1ccc(-c2ccccc2)cc1
8. O=C(CN1CCN(c2cccc(C(F)(F)F)c2)CC1)c1ccc(-c2ccccc2)cc1

31.84
29.87
26.86
42.31
28.97
38.66
30.48
31.84

Could you tell me which Activity is on file for `COc1ccc(N2CCN(CC(=O)c3ccc(-c4ccccc4)cc3)CC2)cc1` ?
59.28
